test: in vitro; conditions: human
Measured Quantity: Clint (uL/min/mg protn) n=1
// units = uL/min/mg protn; emit number, no label

Exercise: Record request: Clint (uL/min/mg protn) n=1 value, item [2H]C([2H])([2H])/C=C/CC[C@@H](C)[C@@H](O)[C@H]1C(=O)N[C@@H](CC)C(=O)N(C)CC(=O)N(C)[C@@H](CC(C)C)C(=O)N[C@@H](C(C)C)C(=O)N(C)[C@@H](CC(C)C)C(=O)N[C@@H](C)C(=O)N[C@H](C)C(=O)N(C)[C@@H](CC(C)C)C(=O)N(C)[C@@H](CC(C)C)C(=O)N(C)[C@@H](C(C)C)C(=O)N1C
Key: 44

Exercise: Thanks! And C/C=C/CCC[C@@H](C)[C@@H](O)[C@H]1C(=O)N[C@@H](CC)C(=O)N(C)CC(=O)N(C)[C@@H](CC(C)C)C(=O)N[C@@H](C(C)C)C(=O)N(C)[C@@H](CC(C)C)C(=O)N[C@@H](C)C(=O)N[C@H](C)C(=O)N(C)[C@@H](CC(C)C)C(=O)N(C)[C@@H](CC(C)C)C(=O)N(C)[C@@H](C(C)C)C(=O)N1C ?
Key: 81

Exercise: Thanks! And CC[C@@H]1NC(=O)[C@H]([C@H](O)[C@H](C)CC/C=C\F)N(C)C(=O)[C@H](C(C)C)N(C)C(=O)[C@H](CC(C)C)N(C)C(=O)[C@H](CC(C)C)N(C)C(=O)[C@@H](C)NC(=O)[C@H](C)NC(=O)[C@H](CC(C)C)N(C)C(=O)[C@H](C(C)C)NC(=O)[C@H](CC(C)C)N(C)C(=O)CN(C)C1=O ?
Key: 48

Exercise: Thanks! And C/C=C/CC[C@@H](C)[C@@H](O)[C@H]1C(=O)N[C@@H](CC)C(=O)N(C)CC(=O)N(C)[C@@H](CC(C)C)C(=O)N[C@@H](C(C)C)C(=O)N(C)[C@@H](CC(C)C)C(=O)N[C@@H](C)C(=O)N[C@H](C)C(=O)N(C)[C@@H](CC(C)C)C(=O)N(C)[C@@H](CC(C)C)C(=O)N(C)[C@@H](C(C)C)C(=O)N1C ?
Key: 40

Exercise: Thanks! And C=CCCC[C@@H](C)[C@@H](O)[C@H]1C(=O)N[C@@H](CC)C(=O)N(C)CC(=O)N(C)[C@@H](CC(C)C)C(=O)N[C@@H](C(C)C)C(=O)N(C)[C@@H](CC(C)C)C(=O)N[C@@H](C)C(=O)N[C@H](C)C(=O)N(C)[C@@H](CC(C)C)C(=O)N(C)[C@@H](CC(C)C)C(=O)N(C)[C@@H](C(C)C)C(=O)N1C ?
Key: 69
